# Test system: KARPAS-422
# testDescription: NHL cell line viability/apoptosis 384-well flow cytometry assay
# Assay type: cell-based
# statedConditions: Homo sapiens; KARPAS-422 (DLBCL), 120 hours; read-out: IC50 (% Viable Cells)
# Procedure: The following exemplary anti-proliferative assay uses exemplary non-Hodgkin lymphoma (NIL) cell lines (including diffuse large B-cell lymphoma (DLBCL), follicular lymphoma (FL), and mantle cell lymphoma (MCL)) (Table 5). The in vitro growth inhibitory activity of Compound 1 described herein was evaluated using a 384-well flow cytometry assay. […]
reportedProperty: IC50
Please make sure the unit comes right after the number.

For O=C1CC[C@H](N2C(=O)c3cccc(NCc4ccc(CN5CC(N6CCOCC6)C5)cc4F)c3C2=O)C(=O)N1 on KARPAS-422, measured IC50 was 13.1 nM
